Molecular target: Tumor susceptibility gene 101 protein (Homo sapiens) (UniProt Q99816)
Sequence (Q99816 whole entry, looked up): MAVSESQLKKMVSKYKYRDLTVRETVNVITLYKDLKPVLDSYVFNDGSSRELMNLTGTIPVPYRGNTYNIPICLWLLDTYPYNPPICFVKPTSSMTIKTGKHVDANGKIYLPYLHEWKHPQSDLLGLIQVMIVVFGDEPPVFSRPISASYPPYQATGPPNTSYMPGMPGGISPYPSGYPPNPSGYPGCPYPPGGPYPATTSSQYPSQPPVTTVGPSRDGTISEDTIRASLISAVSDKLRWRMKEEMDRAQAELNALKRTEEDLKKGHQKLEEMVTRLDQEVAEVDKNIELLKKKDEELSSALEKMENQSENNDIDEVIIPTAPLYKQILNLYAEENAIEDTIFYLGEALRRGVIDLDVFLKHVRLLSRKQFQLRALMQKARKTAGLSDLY
Assay: qHTS Assay for Iinhibitors of HIV-1 Budding by Blocking the Interaction of PTAP/TSG101: Hit Validation (AID 651600); note: nearly all actives have a fitted effect of over 70% in size; note: potency is the fitted concentration of half-maximal effect
Conditions: PTAP peptide/TSG101 UEV interaction, biochemical assay; series mostly up to 57.5 µM
Results filed as inconclusive are left out. Calls of active or inactive are those of the source. Calls come from the whole dose curve; as a rule, active = well fitted inhibition curve with a large enough effect; inconclusive = small, poorly fitted or top-dose-only effect; inactive = no such curve, though single readings can be large or run the other way.
readout_label: Potency

- molecule: "CCCN1CCN(S(=O)(=O)c2cn(C)nc2C)CC1"
  obs_value: "inactive"
- molecule: "OC(CN1CCN(c2ccccn2)CC1)Cn1c2ccccc2c2ccccc21 (configuration not stated)"
  obs_value: "inactive"
- molecule: "COc1ccc(OC)c(S(=O)(=O)Nc2cc3c(cc2C)n(C)c(=O)c(=O)n3C)c1"
  obs_value: "inactive"
- molecule: "CCN(CC)c1ccc2cc(-c3nc(-c4ccc(OC)cc4)cs3)c(=O)oc2c1"
  obs_value: "inactive"
- molecule: "Cc1ccc(C2C=C(c3ccccc3)Nc3nc(NS(=O)(=O)c4ccccc4)nn32)cc1 (configuration not stated)"
  obs_value: "inactive"
- molecule: "C=CCOc1ccc(C2OC34CCCCC3C(C#N)(C#N)C2(C#N)C(=N)O4)cc1 (configuration not stated)"
  obs_value: "25.9 µM (active)"
- molecule: "Cc1ccc(OC(=O)c2ccc3nc(C)sc3c2)cc1"
  obs_value: "inactive"
- molecule: "Cn1c(=O)cc2c3c(c(N4CCCCC4)ccc31)C(=O)c1ccccc1-2"
  obs_value: "inactive"
- molecule: "COc1ccc(C2=CC(c3ccco3)n3ncnc3N2)cc1 (configuration not stated)"
  obs_value: "inactive"
- molecule: "CCOc1cc(/C=C(\\C#N)c2nc(-c3cccs3)c(NC(C)=O)s2)ccc1O"
  obs_value: "inactive"
- molecule: "O=C(CCN1C(=O)/C(=C/c2ccco2)SC1=S)Nc1ccc(O)cc1C(=O)O"
  obs_value: "inactive"
- molecule: "CC1CC(C)CN(C(=O)c2ccc3c(c2NCCO)C(=O)c2ccccc2C3=O)C1 (configuration not stated)"
  obs_value: "inactive"
- molecule: "COc1ccc(CCn2c(=N)c(S(=O)(=O)c3ccc(Cl)cc3)cc3c(=O)n4ccccc4nc32)cc1"
  obs_value: "6.51 µM (active)"
- molecule: "COc1ccc2oc3ccccc3c(=O)c2c1"
  obs_value: "inactive"
- molecule: "CC(=O)Nc1ccc(S(=O)(=O)Nc2nc3n(n2)C(c2ccccc2)C=C(c2ccc(Cl)cc2)N3)cc1 (configuration not stated)"
  obs_value: "inactive"
- molecule: "O=C(O)c1ccc(-n2c(-c3ccc(Br)cc3)n[nH]c2=S)cc1"
  obs_value: "inactive"
- molecule: "COc1ccc(/C=C2/N=C(c3cccs3)OC2=O)cc1OC(C)C"
  obs_value: "inactive"
- molecule: "Cc1ccc(N2C(=O)C3C(C(=O)c4ccccc4)=NN(c4ccccc4)C3C2=O)cc1 (configuration not stated)"
  obs_value: "inactive"
- molecule: "CCCN1C(=O)/C(=C/C=C2\\N(CC)c3ccccc3C2(C)C)SC1=S"
  obs_value: "29.1 µM (active)"
- molecule: "Cc1cc[n+](-c2[nH]c(=O)sc2/C=N/N=C(\\[O-])c2ccccc2)cc1C"
  obs_value: "10.3 µM (active)"
- molecule: "Cn1c(=O)c(Nc2ccc(Cl)cc2)c2c3c(cccc31)C(=O)c1ccccc1-2"
  obs_value: "10.3 µM (active)"
- molecule: "CCn1c(/C=C/c2cc[n+](C)cc2)nc2ccccc21"
  obs_value: "inactive"
- molecule: "Cc1ccc(/C=C/C(=O)Nc2ccc(S(=O)(=O)Nc3onc(C)c3C)cc2)cc1"
  obs_value: "inactive"
- molecule: "CC(=O)c1cccc(-n2nnnc2SCC(=O)Nc2cc(C)on2)c1"
  obs_value: "inactive"
- molecule: "O=C(NCc1cccc(F)c1)c1cccc2c1C(=O)c1ccc(N3CCCC3)cc1S2(=O)=O"
  obs_value: "inactive"
- molecule: "O=C(C1=C(O)C(=O)N(c2nccs2)C1c1ccccc1)c1cc2ccccc2o1 (configuration not stated)"
  obs_value: "5.17 µM (active)"
- molecule: "COC(=O)CNc1c(-c2ccccc2)nc2ccc(Br)cn12"
  obs_value: "inactive"
- molecule: "COc1cccc2c1C(=O)c1c(O)c3c(c(O)c1C2=O)C[C@](O)(C(C)=O)C[C@H]3O[C@@H]1C[C@@H](N)[C@@H](O)[C@@H](C)O1"
  obs_value: "14.6 µM (active)"
- molecule: "CN(C)c1ccc(N=Cc2nc(-c3ccccc3)oc2O)cc1"
  obs_value: "18.3 µM (active)"
- molecule: "O=C1C=CC(=O)c2c(O)c(CO)c(CO)c(O)c21"
  obs_value: "inactive"
- molecule: "Nc1nnnn1/N=C/c1cc(Cl)cc(Cl)c1O"
  obs_value: "18.3 µM (active)"
- molecule: "O=C(/C=C/c1ccc(Cl)cc1Cl)c1nc2ccccc2[nH]1"
  obs_value: "20.6 µM (active)"

Cited source: PubChem BioAssay (NCATS)
